ASSAY_PROCEDURE: Unbound intrinsic clearance in mouse microsomes
Type: ADME, Microsome
Please use MET for CL free under 500 mL/min/kg and NOT MET for everything else, ties included.

Please review the entries below; each comes with its answer.
- COMPOUND: "C[C@@H]1CN(C)CC[C@@H]1c1cc2c(cc1-c1ccccc1F)OCC1=NNC(=O)[C@@H](C)N12"
  LABEL: "MET"
- COMPOUND: "C[C@@H]1C(=O)NN=C2COc3cc(-c4ccccc4F)c([C@@H](C)C4(C)CN(C)C4)cc3N21"
  LABEL: "NOT MET"
- COMPOUND: "C[C@@H]1C(=O)NN=C2COc3cc(-c4ccccc4F)c(C4CCN(C)CC4(C)C)cc3N21 (stereo partly drawn)"
  LABEL: "NOT MET"
- COMPOUND: "C[C@@H]1C(=O)NN=C2COc3cc(C(F)(F)F)c(NC4(C)CNC4)cc3N21"
  LABEL: "MET"
- COMPOUND: "C[C@@H]1C(=O)NN=C2COc3cc(C(F)(F)F)c(N(C)C4(C)CN(C)C4)cc3N21"
  LABEL: "NOT MET"

Task item: Report whether reported CL free is lower than 500 mL/min/kg (strictly) for CC1C(=O)NN=C2COc3cc(-c4ccccc4)c(NC4(C)CN(C)C4)cc3N21 (stereo not drawn)
Reply: MET

Task item: Report whether reported CL free is lower than 500 mL/min/kg (strictly) for `C[C@@H]1C(=O)NN=C2COc3cc(-c4ccccc4F)c([C@@H]4CCNC[C@@H]4C)cc3N21`
Reply: MET

These data points were gathered from ChEMBL document CHEMBL3352406.
